Kindly state inhibition at 1 µM for each of the entries shown.
Target: S. aureus GyrB ATPase (Staphylococcus aureus)
Sequence (P0A0K8 whole entry): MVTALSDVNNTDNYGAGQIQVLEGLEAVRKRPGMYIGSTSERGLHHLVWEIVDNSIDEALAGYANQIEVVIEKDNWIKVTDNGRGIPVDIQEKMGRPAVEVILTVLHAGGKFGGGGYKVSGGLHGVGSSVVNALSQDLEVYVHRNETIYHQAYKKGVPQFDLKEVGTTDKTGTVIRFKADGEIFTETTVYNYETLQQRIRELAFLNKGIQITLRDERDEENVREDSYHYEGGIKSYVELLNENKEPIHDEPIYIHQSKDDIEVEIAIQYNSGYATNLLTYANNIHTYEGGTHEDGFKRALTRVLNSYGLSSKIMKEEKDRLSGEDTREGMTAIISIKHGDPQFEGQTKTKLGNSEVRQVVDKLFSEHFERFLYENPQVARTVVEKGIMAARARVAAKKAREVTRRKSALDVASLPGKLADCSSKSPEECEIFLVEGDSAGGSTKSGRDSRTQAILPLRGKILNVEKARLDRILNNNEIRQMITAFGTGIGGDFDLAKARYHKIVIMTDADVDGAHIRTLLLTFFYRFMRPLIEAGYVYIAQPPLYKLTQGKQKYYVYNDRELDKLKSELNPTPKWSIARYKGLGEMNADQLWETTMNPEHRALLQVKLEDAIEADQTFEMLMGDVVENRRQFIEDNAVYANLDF
Sequence (P0AES4 whole entry, further chain): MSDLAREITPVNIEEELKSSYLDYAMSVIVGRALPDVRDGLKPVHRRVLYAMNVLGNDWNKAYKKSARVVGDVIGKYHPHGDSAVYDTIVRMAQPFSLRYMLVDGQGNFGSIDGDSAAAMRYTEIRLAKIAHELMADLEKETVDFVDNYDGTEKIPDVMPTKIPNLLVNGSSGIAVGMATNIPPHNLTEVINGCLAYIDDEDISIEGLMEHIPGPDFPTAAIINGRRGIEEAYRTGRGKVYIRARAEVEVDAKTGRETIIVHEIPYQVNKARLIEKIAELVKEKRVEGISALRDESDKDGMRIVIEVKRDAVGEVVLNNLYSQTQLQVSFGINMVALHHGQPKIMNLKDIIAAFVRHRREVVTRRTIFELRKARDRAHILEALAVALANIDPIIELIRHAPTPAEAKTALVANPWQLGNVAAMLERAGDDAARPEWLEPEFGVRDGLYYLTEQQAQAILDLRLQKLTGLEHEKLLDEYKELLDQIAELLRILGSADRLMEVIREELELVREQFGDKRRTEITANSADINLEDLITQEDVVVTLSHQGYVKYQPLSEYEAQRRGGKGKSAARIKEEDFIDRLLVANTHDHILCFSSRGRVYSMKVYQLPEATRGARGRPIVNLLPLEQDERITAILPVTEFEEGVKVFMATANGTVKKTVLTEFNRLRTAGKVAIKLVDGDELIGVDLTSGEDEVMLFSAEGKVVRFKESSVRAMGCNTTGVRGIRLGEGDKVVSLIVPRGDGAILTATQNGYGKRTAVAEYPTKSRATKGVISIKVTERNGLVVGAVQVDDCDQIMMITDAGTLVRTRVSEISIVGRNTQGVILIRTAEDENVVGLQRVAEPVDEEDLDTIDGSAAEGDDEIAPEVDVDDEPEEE
Assay: S. aureus (SAU) GyrB ATPase inhibition, malachite green phosphate detection (E. coli GyrA + S. aureus GyrB)
Assay type: biochemical
Conditions: compound concentration of 1.0 μM unless otherwise noted; average value where assay was carried out more than once; read-out: S. aureus (SAU) GyrB ATPase % Inhibition
Method: Compounds were tested for inhibition of GyrB ATPase activity using an ammonium molybdate/malachite green-based phosphate detection assay (Lanzetta, P. A., L. J. Alvarez, P. S. Reinach, and O. A. Candia, 1979, 100: 95-97). […] Compound potency was based on IC50 measurements determined from reactions performed in the presence of 10 different compound concentrations.
One number for each entry, in %.

Please report inhibition at 1 µM for every entry that follows.
1. CCNC(=O)Nc1cc(-c2nc(C(F)(F)F)c(C(=O)NC3CCCC3)s2)c(-c2cncc(-c3n[nH]c(=O)o3)c2)cn1
2. CCNC(=O)Nc1cc(-c2nc(C(F)(F)F)cs2)c(-c2cc(-c3n[nH]c(=O)o3)cnc2OC2CCN(C)CC2)cn1
3. CCNC(=O)Nc1cc(-c2nc(C(F)(F)F)cs2)c(-c2cc(-c3n[nH]c(=O)o3)cnc2OC(C)CN(C)C)cn1 (stereo not drawn)
4. CCNC(=O)Nc1cc(-c2nc(C(F)(F)F)cs2)c(-c2cc[n+]([O-])c(-c3nnc(C)o3)c2)cn1
5. CCNC(=O)Nc1cc(-c2nc(C3CCCCC3)cs2)c(-c2cncc(-c3nnc(C)o3)c2)cn1

Result ::
1: 93; 2: 96; 3: 118; 4: 95; 5: 109

Please report inhibition at 1 µM for every entry that follows.
1. CCNC(=O)Nc1cc(-c2nc(C(F)(F)F)cs2)c(-c2ccc[n+]([O-])c2)cn1
2. CCNC(=O)Nc1cc(-c2nc(C(F)(F)F)cs2)c(-c2cc(-c3n[nH]c(=O)o3)cnc2OCC2CCOCC2)cn1
3. CCNC(=O)Nc1cc(-c2cn(Cc3ccccc3)nn2)c(-c2cc(-c3n[nH]c(=O)o3)ccn2)cn1
4. CCNC(=O)Nc1cc(-c2nnc(-c3ccccc3)o2)c(-c2ccnc(-c3n[nH]c(=O)o3)c2)cn1
5. CCNC(=O)Nc1cc(-c2nc(C3CCN(C(=O)n4ccnc4)CC3)cs2)c(-c2cncc(-c3n[nH]c(=O)o3)c2)cn1
6. CCNC(=O)Nc1cc(-c2nc(-c3cccc(OC)n3)cs2)c(-c2cncc(-c3n[nH]c(=O)o3)c2)cn1
7. CCNC(=O)Nc1cc(-c2nc(C(F)(F)F)cs2)c(-c2cncc(-c3c[nH]nc3C)c2)cn1

Result ::
1. 93
2. 95
3. 91
4. 101
5. 95
6. 43
7. 92

---

target: S. aureus GyrB ATPase (Staphylococcus aureus); experiment: S. aureus (SAU) GyrB ATPase inhibition, malachite green phosphate detection (E. coli GyrA + S. aureus GyrB); assay type: biochemical; details: compound concentration of 1.0 μM unless otherwise noted; average value where assay was carried out more than once; read-out: S. aureus (SAU) GyrB ATPase % Inhibition
Counter-ions that a name gives are not always drawn.
measured attribute: inhibition at 1 µM (%)
Numbers only, in %.

compound: CCNC(=O)Nc1cc(-c2nc(-c3cccnc3OCCOC)cs2)c(-c2cc(-c3nnc(C)o3)cnc2OC2CCOCC2)cn1
tgt: S. aureus GyrB ATPase (Staphylococcus aureus)
measured attribute: inhibition at 1 µM
data value: 99
--
compound: CCNC(=O)Nc1cc(-c2nc(C(F)(F)F)cs2)c(-c2cncc(-c3cnn(C)c3)c2)cn1
tgt: S. aureus GyrB ATPase (Staphylococcus aureus)
measured attribute: inhibition at 1 µM
data value: 109
--
compound: CCNC(=O)Nc1cc(-c2nc(-c3ccc(OC)nc3)cs2)c(-c2cncc(-c3n[nH]c(=O)o3)c2)cn1
tgt: S. aureus GyrB ATPase (Staphylococcus aureus)
measured attribute: inhibition at 1 µM
data value: 104
--
compound: CCNC(=O)Nc1cc(-c2nc(C(F)(F)F)c(CNCCN3CCOCC3)s2)c(-c2cncc(-c3n[nH]c(=O)o3)c2)cn1 [Example 51, trihydrochloride]
tgt: S. aureus GyrB ATPase (Staphylococcus aureus)
measured attribute: inhibition at 1 µM
data value: 98
--
compound: CCNC(=O)Nc1cc(-c2nc(C(F)(F)F)cs2)c(-c2cnc(C#N)nc2)cn1
tgt: S. aureus GyrB ATPase (Staphylococcus aureus)
measured attribute: inhibition at 1 µM
data value: 102
--
compound: CCNC(=O)Nc1cc(-c2nc(C(F)(F)F)cs2)c(-c2cc(-c3n[nH]c(=O)o3)cnc2OC[C@H](C)O)cn1
tgt: S. aureus GyrB ATPase (Staphylococcus aureus)
measured attribute: inhibition at 1 µM
data value: 109

Please report inhibition at 1 µM for every entry that follows.
1. CCNC(=O)Nc1cc(-c2nc(C(F)(F)F)c(CNC3CCCC3)s2)c(-c2cncc(-c3n[nH]c(=O)o3)c2)cn1 [Example 53, hydrochloride]
2. CCNC(=O)Nc1cc(-c2nc(C3CCCC3)cs2)c(-c2cncc(-c3nnc(C)o3)c2)cn1
3. CCNC(=O)Nc1cc(-n2ccc(C(F)(F)F)n2)c(-c2cncc(-c3nnc([C@@H](N)C(C)C)o3)c2)cn1
4. CCNC(=O)Nc1cc(-c2nc(C(F)(F)F)cs2)c(-c2cc(-c3nnc(C)o3)cnc2OC2CCNCC2)cn1
5. CCNC(=O)Nc1cc(-c2nnc(-c3ccccc3)o2)c(-c2cnc(-c3n[nH]c(=O)o3)cn2)cn1

Result ::
1. 109
2. 101
3. 98
4. 95
5. 98

Please report inhibition at 1 µM for every entry that follows.
1. CCNC(=O)Nc1cc(-c2nc(C(F)(F)F)cs2)c(-c2cncc(-c3nnc(NCCOC)o3)c2)cn1
2. CCNC(=O)Nc1cc(-c2nc(C(F)(F)F)c(C)s2)c(-c2cc(-c3nnc(C)o3)cnc2OC2CCOCC2)cn1
3. CCNC(=O)Nc1cc(-c2nc(C(F)(F)F)c(CNC3CCCCC3)s2)c(-c2cncc(-c3nnc(C)o3)c2)cn1

Result ::
1. 100
2. 96
3. 96
